- Tested on: Felis catus
- Measurement protocol: Inhibition of cat cardiac response to cardioaccelerator nerve stimulation, when administered intravenously
- Type: functional
- Measurement context: iv, read-out: ID50 (the source's name)

# Molecule, ED50 (µmol/kg)
measured = [
    ("CCCN(CCC)C1CCc2cc(C)c(O)cc2C1 (centres undefined)", 0.54),
    ("CCCN(CCC)C1CCc2c(ccc(C)c2O)C1 (centres undefined)", 0.25),
    ("CCCN(CCC)C1CCc2cc(O)c(C)cc2C1 (centres undefined)", 1.75),
    ("CN1CCc2cccc3c2[C@H]1Cc1ccc(O)c(O)c1-3", 0.035),
]
